MEASUREMENT_CONTEXT: 313.15 K; 101 kPa
viscosity listing for selected compounds.

{"TEST_SMILES": "CCCC(=O)[O-].[NH3+]CCO", "viscosity [mPa·s]": 733.5}
{"TEST_SMILES": "CCCCCCCC/C=C\\CCCCCCCC(=O)OCC", "viscosity [mPa·s]": 3.918}
{"TEST_SMILES": "CCC(=O)O.CCC(=O)[O-].CC[NH+](CC)CCO", "viscosity [mPa·s]": 31.21}
{"TEST_SMILES": "CC(=O)OCCC(C)C", "viscosity [mPa·s]": 0.642}

====

viscosity listing for selected compounds.
MEASUREMENT_CONTEXT: 313.15 K; 100 kPa
MEASUREMENT_KIND: viscosity (mPa·s)

{"TEST_SMILES": "CC(=O)O.OCCNCCO", "MEASUREMENT_KIND": "viscosity", "TEST_VALUE": 1003}
{"TEST_SMILES": "CCCCCCCC/C=C\\CCCCCCCC(=O)OCC", "MEASUREMENT_KIND": "viscosity", "TEST_VALUE": 3.919}
{"TEST_SMILES": "CCOP(=O)([O-])OCC.CC[N+]1(C)CCCC1", "MEASUREMENT_KIND": "viscosity", "TEST_VALUE": 121.4}
{"TEST_SMILES": "CN(C)CCCN", "MEASUREMENT_KIND": "viscosity", "TEST_VALUE": 0.7611}
